Hello, the source for this data is patent US5747500A, in case you need it.

System: HIV
protocol_summary: inhibition of HIV-induced cytopathic effect in MT-4 cells (MTT method)
Assay type: cell-based
experimental_context: ratio CD50/ED50, MT-4 cells
measurement_name: S.I.: Selectivity index (CD50/ED50)

Recorded results for 10 compounds are shown here.
Cc1cc(C)cc(Cc2c(C(C)C)c(=O)[nH]c(=O)n2C/C=C/c2ccccc2)c1 > 892
CCc1c(Cc2cc(C)cc(C)c2)n(C/C=C/c2ccccc2)c(=O)[nH]c1=O 642
C/C=C\Cn1c(Oc2cc(C)cc(C)c2)c(CC)c(=O)[nH]c1=O > 7,381
CCOC/C=C\Cn1c(Sc2ccccc2)c(CC)c(=O)[nH]c1=O 6.85
C/C=C/Cn1c(Oc2cc(C)cc(C)c2)c(C(C)C)c(=O)[nH]c1=O > 1,098
CCc1c(Sc2cc(C)cc(C)c2)n(C/C=C/c2ccccc2)c(=O)[nH]c1=O > 578
C/C=C/Cn1c(Sc2cc(C)cc(C)c2)c(C(C)C)c(=O)[nH]c1=O > 740
C/C=C/Cn1c(Sc2cc(C)cc(C)c2)c(CC)c(=O)[nH]c1=O > 971
C=CCn1c(Cc2ccccc2)c(CC)c(=O)[nH]c1=O > 164
CCc1c(Sc2ccccc2)n(CC=C(C)C)c(=O)[nH]c1=O 31

S.I.: Selectivity index (CD50/ED50) in this record for C/C=C/Cn1c(Sc2ccccc2)c(CC)c(=O)[nH]c1=O : > 50

The recorded S.I.: Selectivity index (CD50/ED50) for CCc1c(Sc2ccccc2)n(C/C=C/c2ccccc2)c(=O)[nH]c1=O is > 180

Value of S.I.: Selectivity index (CD50/ED50) reported for the compound CCc1c(C(=O)c2cc(C)cc(C)c2)n(C/C=C/CCl)c(=O)[nH]c1=O is > 774

Lab book: S.I.: Selectivity index (CD50/ED50) of CCc1c(C(=O)c2cc(C)cc(C)c2)n(C/C=C/CO)c(=O)[nH]c1=O noted as > 6,160

The value of S.I.: Selectivity index (CD50/ED50) measured for the compound CCc1c(C(=O)c2cc(C)cc(C)c2)n(CC=C(C)C)c(=O)[nH]c1=O turned out to be > 84

S.I.: Selectivity index (CD50/ED50) for CCc1c(Oc2cc(C)cc(C)c2)n(C/C=C/C(=O)OC)c(=O)[nH]c1=O is > 224

Looking up CCc1c(C(=O)c2cc(C)cc(C)c2)n(CC=CC(=O)OC(C)C)c(=O)[nH]c1=O , I found its S.I.: Selectivity index (CD50/ED50) recorded as > 485

###

protocol_summary: cytotoxicity: viability of mock-infected MT-4 host cells (MTT method)
Type: cell-based
experimental_context: human, mt-4 cells, read-out: CD50: Cytotoxic concentration that causes death of cells by 50%
measurement_name: log10 CC50 (log10 of the value in µg/mL)
Log scale reminder: CC50 in µg/mL, then log10 taken.

Some solved cases for reference:
compound	reported
CC#CCn1c(Oc2cc(C)cc(C)c2)c(CC)c(=O)[nH]c1=O [Example 58]	1.69
CCc1c(Oc2cc(C)cc(C)c2)n(C/C=C/c2ccccc2)c(=O)[nH]c1=O [Example 59]	1.59
CCc1c(C(=O)c2cc(C)cc(C)c2)n(C/C=C/COC(C)=O)c(=O)[nH]c1=O [Example 80]	1.65
CCc1c(Sc2ccccc2)n(C/C=C\COCc2ccccc2)c(=O)[nH]c1=O [Example 17]	0.76
C=CCn1c(C(=O)c2cc(C)cc(C)c2)c(CC)c(=O)[nH]c1=O [Example 43]	1.74

Entry COC(=O)/C=C/Cn1c(Oc2cc(C)cc(C)c2)c(C(C)C)c(=O)[nH]c1=O [Example 66] ; log10 CC50 = 1.90

For record C#CCn1c(Sc2cc(C)cc(C)c2)c(CC)c(=O)[nH]c1=O [Example 24] the listed log10 CC50 is 0.26

log10 CC50 reported for this compound C/C=C/Cn1c(Cc2ccccc2)c(CC)c(=O)[nH]c1=O [Example 32] : 1.51

###

Recorded CC50, one value per entry.
protocol_summary: cytotoxicity: viability of mock-infected MT-4 host cells (MTT method)
Assay type: cell-based
experimental_context: human, mt-4 cells, read-out: CD50: Cytotoxic concentration that causes death of cells by 50%
Write the answer as a number in µg/mL, unit excluded.

Consider the reported CC50 for these compounds:
C#CCn1c(Oc2cc(C)cc(C)c2)c(CC)c(=O)[nH]c1=O 15.8
C#CCn1c(Cc2cc(C)cc(C)c2)c(CC)c(=O)[nH]c1=O 24.1
CCOC/C=C\Cn1c(Sc2ccccc2)c(CC)c(=O)[nH]c1=O 19
Cc1cc(C)cc(Cc2c(C(C)C)c(=O)[nH]c(=O)n2CC#Cc2ccccc2)c1 7.42
C/C=C\Cn1c(Oc2cc(C)cc(C)c2)c(CC)c(=O)[nH]c1=O 73.8

Reported CC50 ( Cc1cc(C)cc(C(=O)c2c(C(C)C)c(=O)[nH]c(=O)n2C/C=C/CO)c1 ) = 42

Value of CC50 reported for the compound CCc1c(Sc2cc(C)cc(C)c2)n(C/C=C/CCl)c(=O)[nH]c1=O is 33.8

CC#CCn1c(C(=O)c2cc(C)cc(C)c2)c(C(C)C)c(=O)[nH]c1=O yielded CC50 of 41.7

Memo: C/C=C/Cn1c(Sc2cc(C)cc(C)c2)c(CC)c(=O)[nH]c1=O , reported CC50: 8.74

The reported CC50 of the compound CCc1c(C(=O)c2cc(C)cc(C)c2)n(CC=C(C)C)c(=O)[nH]c1=O was 27.8

Per the records, this compound ( C=CCn1c(Sc2ccccc2)c(CC)c(=O)[nH]c1=O ) has CC50 equal to 17.5
